Source listed as ChEMBL document CHEMBL4402524.

- TESTED SYSTEM: [Pyruvate dehydrogenase (acetyl-transferring)] kinase isozyme 4, mitochondrial (Homo sapiens)
- Sequence (Q16654 whole entry): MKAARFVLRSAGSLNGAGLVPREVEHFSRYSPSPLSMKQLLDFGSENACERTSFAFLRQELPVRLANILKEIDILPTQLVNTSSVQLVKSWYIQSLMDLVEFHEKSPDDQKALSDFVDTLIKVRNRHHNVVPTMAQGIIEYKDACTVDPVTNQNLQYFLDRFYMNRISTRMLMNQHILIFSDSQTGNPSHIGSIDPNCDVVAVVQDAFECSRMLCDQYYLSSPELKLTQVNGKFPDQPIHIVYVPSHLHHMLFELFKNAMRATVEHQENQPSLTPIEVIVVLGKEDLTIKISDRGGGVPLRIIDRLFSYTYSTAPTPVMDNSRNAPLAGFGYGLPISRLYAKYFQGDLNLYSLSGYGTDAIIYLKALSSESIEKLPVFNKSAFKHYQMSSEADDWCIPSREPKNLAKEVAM
- ASSAY PROTOCOL: Inhibition of PDHK4 (unknown origin) by radiometric biochemical kinase assay
We begin with a simple list: items and their reported IC50.

COMPOUND SMILES	UNIT STRING	IC50
CN(C)C(=O)c1ccc(N(Cc2cnc(Br)s2)C(=O)c2ccc(O)cc2O)cc1	µM	0.087
CN(C)C(=O)c1ccc(N(Cc2ccc(Br)o2)C(=O)c2ccc(O)cc2O)cc1	µM	0.013
CN(C)C(=O)c1ccc(N(CC(C)(C)C)C(=O)c2ccc(O)cc2O)cc1	µM	5.33
CNC(=O)c1ccc(N(Cc2ccc(NC(C)=O)cc2)C(=O)c2ccc(O)cc2O)cc1	µM	7.84
CN(C)C(=O)c1ccc(N(Cc2ccc3ccccc3c2)C(=O)c2ccc(O)cc2O)cc1	µM	0.234

* * *

- TESTED SYSTEM: [Pyruvate dehydrogenase (acetyl-transferring)] kinase isozyme 2, mitochondrial (Homo sapiens, UniProt Q15119)
- ASSAY PROTOCOL: Inhibition of PDHK2 (unknown origin) by radiometric biochemical kinase assay
pIC50: −log10 of the molar value.

COMPOUND SMILES	READOUT QUALIFIER	pIC50
CN(C)C(=O)c1ccc(N(Cc2ccc(F)cc2)C(=O)c2ccccc2O)cc1	<	5.00
CN(C)C(=O)c1ccc(N(Cc2ccc(F)cc2)C(=O)c2ccc(O)cc2)cc1	=	5.69
CC(=O)Nc1ccc(CN(C(=O)c2ccc(O)cc2O)c2ccc(C(=O)NCCO)cc2)cc1	=	5.00
CN(C)C(=O)c1ccc(N(Cc2ccc(O)cc2)C(=O)c2ccc(O)cc2O)cc1	=	6.82
CN(C)C(=O)c1ccc(N(CC(C)(C)C)C(=O)c2ccc(O)cc2O)cc1	=	6.11
CN(C)C(=O)c1ccc(N(Cc2ccc(C(F)(F)F)cc2)C(=O)c2ccc(O)cc2O)cc1	=	6.85
CC(=O)Nc1ccc(CN(C(=O)c2ccc(O)cc2O)c2ccc(C(=O)NC3CC3)cc2)cc1	=	5.71
CN(C)C(=O)c1ccc(N(Cc2ccc(Br)s2)C(=O)c2ccc(O)cc2O)cc1	=	7.74
CN(C)C(=O)c1ccc(N(Cc2ccccc2)C(=O)c2ccc(O)cc2O)cc1	=	6.69
CNC(=O)c1ccc(N(Cc2ccc(NC(C)=O)cc2)C(=O)c2ccc(O)cc2O)cc1	=	5.07

* * *

- TESTED SYSTEM: [Pyruvate dehydrogenase (acetyl-transferring)] kinase isozyme 2, mitochondrial (Homo sapiens)
- ASSAY PROTOCOL: Inhibition of PDHK2 (unknown origin) by radiometric biochemical kinase assay
pIC50: −log10 of the molar value.
Recorded pIC50 values for a group of compounds are listed next.

COMPOUND SMILES	pIC50
CN(C)C(=O)c1ccc(N(CC2CCCCC2)C(=O)c2ccc(O)cc2O)cc1	6.74
CN(C)C(=O)c1ccc(N(Cc2ccc(F)cc2)C(=O)c2ccc(O)cc2O)cc1	6.95
CN(C)C(=O)c1ccc(N(Cc2ccc(C#N)s2)C(=O)c2ccc(O)cc2O)cc1	7.02
CN(C)C(=O)c1ccc(N(Cc2ccco2)C(=O)c2ccc(O)cc2O)cc1	6.88
CN(C)C(=O)c1ccc(N(Cc2ccc(I)o2)C(=O)c2ccc(O)cc2O)cc1	7.01
CN(C)C(=O)c1ccc(N(Cc2ccc([N+](=O)[O-])cc2)C(=O)c2ccc(O)cc2O)cc1	6.96
CC(=O)Nc1ccc(CN(C(=O)c2ccc(O)cc2O)c2ccc(C(=O)N3CCOCC3)cc2)cc1	5.58
Cc1ccc(CN(C(=O)c2ccc(O)cc2O)c2ccc(C(=O)N(C)C)cc2)o1	6.60
CN(C)C(=O)c1ccc(N(Cc2ccc3ccccc3c2)C(=O)c2ccc(O)cc2O)cc1	6.43
CN(C)C(=O)c1ccc(N(Cc2cc(Br)cs2)C(=O)c2ccc(O)cc2O)cc1	8.10
CC(=O)Nc1ccc(CN(C(=O)c2ccc(O)cc2O)c2ccc(C(=O)N3CCCC3)cc2)cc1	5.78
